The reported measurements were obtained from patent US20240270821A1.

Consider the following substances; for each one, report its EC50.
target: hGcgR (Homo sapiens); assay: Functional cAMP activation in the presence of 0.1% casein (no HSA); type: cell-based; conditions: read-out: Relative cAMP EC50, hGcgR;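 note: intracellular cAMP rise after 30 min at 37 °C, read by HTRF against a cAMP standard curve, scaled from buffer only (0%) to maximal control ligand response (100%)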
Sequence (P47871 26-477): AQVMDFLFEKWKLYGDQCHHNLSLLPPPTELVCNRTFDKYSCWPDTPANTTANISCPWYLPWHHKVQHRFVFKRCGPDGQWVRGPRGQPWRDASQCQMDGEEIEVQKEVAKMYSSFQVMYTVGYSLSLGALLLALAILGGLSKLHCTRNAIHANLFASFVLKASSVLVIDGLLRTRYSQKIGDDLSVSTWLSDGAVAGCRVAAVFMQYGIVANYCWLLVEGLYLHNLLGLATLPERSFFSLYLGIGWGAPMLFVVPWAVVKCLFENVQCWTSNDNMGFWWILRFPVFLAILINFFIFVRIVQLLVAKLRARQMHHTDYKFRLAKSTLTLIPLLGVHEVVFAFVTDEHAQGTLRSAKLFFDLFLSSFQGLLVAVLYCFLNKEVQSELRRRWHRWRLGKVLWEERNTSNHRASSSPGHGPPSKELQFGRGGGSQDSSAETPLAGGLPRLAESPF
Starred links: 1 amine or outer side, 2 acyl side, 3 side chain; linkers in the order of their positions; H or OH if unused. Non-standard residues stand in square brackets, D forms with d. Groups on a side chain read outwards from the residue. No end group written: not given here. *: point of attachment. C18 diacid = O=C(O)CCCCCCCCCCCCCCCCC(=O)*; αMePhe(2-F) = C[C@](N)(Cc1ccccc1F)C(=O)O; γGlu = O=C(O)[C@H](CCC(=O)[*:2])N[*:1]; αMe4Pal = C[C@](N)(Cc1ccncc1)C(=O)O; αMeY = C[C@](N)(Cc1ccc(O)cc1)C(=O)O; 4Pal = N[C@@H](Cc1ccncc1)C(=O)O; Aad = N[C@@H](CCCC(=O)O)C(=O)O; αMeL = CC(C)C[C@](C)(N)C(=O)O; αMeS = C[C@](N)(CO)C(=O)O; Orn = NCCC[C@H](N)C(=O)O; AEEA = NCCOCCOCC(=O)O; Aib = CC(C)(N)C(=O)O
Enter your answer as a number in nM; do not include the unit.

Item H-Y[Aib]QGT[αMePhe(2-F)]TSD[4Pal][αMeS]I[αMeL]LD[Orn]K([γGlu-Glu-C18 diacid])AQ[Aib][Orn]FI[dE][αMeY]LSEGGPSSGEPPPSGTE-NH2 [Example 565] has what recorded EC50?
10.3

Item H-Y[Aib]QGT[αMePhe(2-F)]TSD[4Pal]SI[αMeL]LD[Orn]K([AEEA-γGlu-C18 diacid])AQ[αMe4Pal][Orn]FI[dE][αMeY]LIEGGPSSGDPPPEGE-NH2 [Example 727] has what recorded EC50?
2.38

Item H-Y[Aib]QGT[αMePhe(2-F)]TSD[4Pal]SI[αMeL]LD[Orn]K([AEEA-γGlu-C18 diacid])AQ[αMe4Pal][Orn]FI[dE][αMeY]LIEGGPSSGAPPPESEE-NH2 [Example 756] has what recorded EC50?
2.26

Item Y[Aib]QGT[αMePhe(2-F)]TSD[4Pal][αMeS]I[αMeL]LD[Orn]K([γGlu-γGlu-C18 diacid])AQ[Aib][Orn]FI[dE][αMeY]LSEGGPSSGEPPPSGSEE-NH2 [Example 569] has what recorded EC50?
4.34

Item Y[Aib]QGT[αMePhe(2-F)]TSD[4Pal]SILLDKK([γGlu-γGlu-C18 diacid])AQ[Aib]AFIEYL[Aad]EGGPSSGAPPPSGTGE-NH2 [Example 661] has what recorded EC50?
1.78

Item H-Y[Aib]QGT[αMePhe(2-F)]TSD[4Pal]SILLD[Orn]K([γGlu-γGlu-C18 diacid])AQ[Aib]AFIE[αMeY]LEEGGPSSGAPPPSGTGE-NH2 [Example 665] has what recorded EC50?
2.94

Item H-Y[Aib]QGT[αMePhe(2-F)]TSD[4Pal]SI[αMeL]LD[Orn]K([AEEA-γGlu-C18 diacid])AQ[Aib][Orn]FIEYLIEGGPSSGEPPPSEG-NH2 [Example 489] has what recorded EC50?
2.31

Item H-Y[Aib]QGT[αMePhe(2-F)]TSD[4Pal][αMeS]I[αMeL]LD[Orn]K([γGlu-γGlu-C18 diacid])AQ[Aib][Orn]FI[dE][αMeY]LSEGGPSSGEPPPSGTE-NH2 [Example 517] has what recorded EC50?
4.69

Item Y[Aib]QGT[αMePhe(2-F)]TSD[4Pal][αMeS]I[αMeL]LD[Orn]K([γGlu-γGlu-C18 diacid])AQ[Aib][Orn]FI[dE][αMeY]LAEGGPSSGEPPPSGTEE-NH2 [Example 571] has what recorded EC50?
3.27

Item H-Y[Aib]QGT[αMePhe(2-F)]TSD[4Pal]SILLDKK([γGlu-γGlu-C18 diacid])AQ[Aib]AFIEYLEEGGPSSGAPPPSGEEE-NH2 [Example 611] has what recorded EC50?
6.8

Item H-Y[Aib]QGT[αMePhe(2-F)]TSD[4Pal][αMeS]I[αMeL]LD[Orn]K([γGlu-γGlu-C18 diacid])AQ[αMe4Pal]EFI[dE][αMeY]LVEGGPSSGAPPPSGS-NH2 [Example 696] has what recorded EC50?
1.75

Item H-Y[Aib]QGT[αMePhe(2-F)]TSD[4Pal]SI[αMeL]LD[Orn]K([γGlu-γGlu-C18 diacid])AQ[αMe4Pal][Orn]FI[dE][αMeY]LIEGGPSSGEPPPEAE-NH2 [Example 684] has what recorded EC50?
2.16

Item H-Y[Aib]QGT[αMePhe(2-F)]TSD[4Pal][αMeS]I[αMeL]LD[Orn]K([γGlu-γGlu-C18 diacid])AA[Aib]EFI[dE][αMeY]LVEGGPSSGEPPPSGS-NH2 [Example 695] has what recorded EC50?
1.93
